biological target: HCV NS5B RdRp genotype 1b (Hepatitis C virus genotype 1b, UniProt Q9WMX2); construct: The protein was expressed with an 18 amino acid C-terminal truncation to enhance the solubility; made in house; host or cells: E. coli BL21(DE3), pET21a vector; test: Standard HCV NS5B RdRp enzyme assay; format: biochemical; settings: Table 1b; HCV NS5B RdRp genotype 1b; read-out: IC50
Sequence (Q9WMX2 2420-2992): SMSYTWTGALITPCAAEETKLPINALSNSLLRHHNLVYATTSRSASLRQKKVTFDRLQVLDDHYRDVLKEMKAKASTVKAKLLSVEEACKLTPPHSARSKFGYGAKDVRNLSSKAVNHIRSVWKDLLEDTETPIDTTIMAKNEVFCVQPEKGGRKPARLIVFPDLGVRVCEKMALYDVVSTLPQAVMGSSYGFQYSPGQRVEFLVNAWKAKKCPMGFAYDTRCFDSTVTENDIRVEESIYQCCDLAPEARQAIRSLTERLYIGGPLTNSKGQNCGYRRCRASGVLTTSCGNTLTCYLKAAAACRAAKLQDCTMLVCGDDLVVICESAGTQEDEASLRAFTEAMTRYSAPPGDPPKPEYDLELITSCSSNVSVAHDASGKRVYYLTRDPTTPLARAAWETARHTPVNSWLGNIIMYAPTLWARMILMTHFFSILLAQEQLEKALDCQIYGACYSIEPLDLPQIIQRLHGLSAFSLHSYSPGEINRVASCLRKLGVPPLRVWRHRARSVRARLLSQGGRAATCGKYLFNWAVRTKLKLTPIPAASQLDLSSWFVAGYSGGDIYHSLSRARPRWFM
pIC50: −log10 of the molar value.
Measured Endpoint: pIC50

In the examples that follow, each entry is paired with its recorded pIC50.
cpd_smiles=CNC(=O)c1c(-c2ccc(F)cc2)oc2ccc(-c3cc(C(=O)NC4(c5nnc(-c6cccc(OC)c6)[nH]5)CC4)ccc3C)cc12 reported_result="> 6.60"
cpd_smiles=CNC(=O)c1c(-c2ccc(F)cc2)oc2ccc(-c3cc(C(=O)NC4(c5nnc(-c6ccccn6)[nH]5)CC4)ccc3C)cc12 reported_result="> 6.60"
cpd_smiles=CNC(=O)c1c(-c2ccc(F)cc2)oc2ccc(-c3cc(C(=O)NC4(c5ccccc5)CC4)ccc3OC(F)(F)F)cc12 reported_result="6.00 to 6.60"
cpd_smiles=CNC(=O)c1c(-c2ccc(F)cc2)oc2ccc(-c3cc(C(=O)NC4(c5nnc(-c6ccc(OC)cc6)[nH]5)CC4)ccc3C)cc12 reported_result="> 6.60"
cpd_smiles=CNC(=O)c1c(-c2ccc(F)cc2)oc2ccc(-c3cc(OCc4cccnc4)cc(C(=O)NCC(C)C)c3)cc12 reported_result="5.00 to 6.00"

The following compounds each have a reported value; give each one's pIC50.
1. CNC(=O)c1c(-c2ccc(F)cc2)oc2ccc(-c3cc(C(=O)NC4(c5nnc(C(F)(F)F)[nH]5)CC4)ccc3C)cc12
2. CNC(=O)c1c(-c2ccc(F)cc2)oc2ccc(-c3cc(C(=O)NCC(C)C)ccc3OCCN3CCOCC3)cc12

Return:
1. > 6.60
2. > 6.60

---

biological target: HCV NS5B RdRp genotype 1b (Hepatitis C virus genotype 1b, UniProt Q9WMX2); construct: The protein was expressed with an 18 amino acid C-terminal truncation to enhance the solubility; made in house; host or cells: E. coli BL21(DE3), pET21a vector; assay: Standard HCV NS5B RdRp enzyme assay; format: biochemical; conditions: Table 1a; HCV NS5B RdRp genotype 1b; read-out: IC50
pIC50: −log10 of the molar value.
Could you please report measured pIC50 for the items listed next?

cpd_smiles=CCOC(=O)[C@@H]1CCCN1C(=O)c1cccc(-c2ccc3oc(-c4ccc(F)cc4)c(C(=O)NC)c3c2)c1 reported_result="5.00 to 6.00"

Each of the following entries comes with a recorded value; kindly state pIC50 for each.
1. CNC(=O)c1c(-c2ccc(F)cc2)oc2ccc(-c3cccc(C(=O)NC4CC4)c3)cc12
2. CNC(=O)c1c(-c2ccc(F)cc2)oc2ccc(-c3ccc(Cl)cc3C(=O)O)cc12
3. CNC(=O)c1c(-c2ccc(F)cc2)oc2ccc(-c3ccc(NC(=O)OC(C)(C)C)cc3)cc12
4. CNC(=O)c1c(-c2ccc(F)cc2)oc2ccc(-c3cccc(C(=O)NC(CO)CO)c3)cc12

Return:
1. 6.00 to 6.60
2. 5.00 to 6.00
3. < 5.00
4. 5.00 to 6.00

---

target: HCV NS5B RdRp genotype 1b (Hepatitis C virus genotype 1b); construct: The protein was expressed with an 18 amino acid C-terminal truncation to enhance the solubility; made in house; host or cells: E. coli BL21(DE3), pET21a vector; assay: Standard HCV NS5B RdRp enzyme assay; type: biochemical; settings: Table 1a; HCV NS5B RdRp genotype 1b; read-out: IC50
pIC50: −log10 of the molar value.
For each of the compounds below, state its pIC50.

Examples with their reported pIC50 follow.
compound=CNC(=O)c1c(-c2ccc(F)cc2)oc2ccc(-c3ccc(C(=O)N(C)CC(=O)N(C)C)cc3)cc12 experimental_target="HCV NS5B RdRp genotype 1b (Hepatitis C virus genotype 1b)" measured_endpoint=pIC50 reported_result="< 5.00"
compound="CNC(=O)c1c(-c2ccc(F)cc2)oc2ccc(-c3cccc(C(=O)N4CCCC(O)C4)c3)cc12 (centres unmarked)" experimental_target="HCV NS5B RdRp genotype 1b (Hepatitis C virus genotype 1b)" measured_endpoint=pIC50 reported_result="5.00 to 6.00"
compound=CNC(=O)c1c(-c2ccc(F)cc2)oc2ccc(-c3cc(C(=O)O)cc([N+](=O)[O-])c3)cc12 experimental_target="HCV NS5B RdRp genotype 1b (Hepatitis C virus genotype 1b)" measured_endpoint=pIC50 reported_result="6.00 to 6.60"
compound=CNC(=O)c1c(-c2ccc(F)cc2)oc2ccc(-c3cccc(C(=O)NCC(C)C)c3)cc12 experimental_target="HCV NS5B RdRp genotype 1b (Hepatitis C virus genotype 1b)" measured_endpoint=pIC50 reported_result="> 6.60"
compound=CNC(=O)c1c(-c2ccc(F)cc2)oc2ccc(-c3ccc(CNS(C)(=O)=O)cc3)cc12 experimental_target="HCV NS5B RdRp genotype 1b (Hepatitis C virus genotype 1b)" measured_endpoint=pIC50 reported_result="< 5.00"

Please state pIC50 for every compound in the list that follows.
1. CNC(=O)c1c(-c2ccc(F)cc2)oc2ccc(-c3cccc(C(=O)NC(C)(C)C(=O)NCC#N)c3)cc12
2. CNC(=O)c1c(-c2ccc(F)cc2)oc2ccc(-c3cnc(OC)nc3)cc12

Return:
1: > 6.60; 2: 5.00 to 6.00

// batch mode: one pIC50 value per listed entry
1. CNC(=O)c1c(-c2ccc(F)cc2)oc2ccc(-c3cccc(C(=O)NC4(C(=O)NS(=O)(=O)C5CC5)CC4)c3)cc12
2. CNC(=O)c1c(-c2ccc(F)cc2)oc2ccc(-c3cccc(C(=O)NCCC(C)C)c3)cc12
3. CNC(=O)c1c(-c2ccc(F)cc2)oc2ccc(-c3cccc(C(=O)Nc4cccc(C)c4)c3)cc12
4. CNC(=O)c1c(-c2ccc(F)cc2)oc2ccc(-c3ccc(C(=O)N4CC[C@H](NC(C)=O)C4)cc3)cc12
5. CNC(=O)c1c(-c2ccc(F)cc2)oc2ccc(OCCOc3ccc(C(C)(C)C)cc3)cc12
6. CCNC(=O)c1cccc(-c2ccc3oc(-c4ccc(F)cc4)c(C(=O)NC)c3c2)c1
7. CNC(=O)c1c(-c2ccc(F)cc2)oc2ccc(-c3ccccn3)cc12

Return:
["> 6.60", "6.00 to 6.60", "6.00 to 6.60", "5.00 to 6.00", "< 5.00", "6.00 to 6.60", "5.00 to 6.00"]

---

tested on: HCV replicon cells; assay: HCV replicon FRET / luciferase assay (96-well plates); assay type: cell-based; details: Hepatitis C virus, Table 1b; HCV replicon; read-out: EC50
pEC50: −log10 of the molar value.
Measured Endpoint: pEC50

Answered examples (3):
compound=CNC(=O)c1c(-c2ccc(F)cc2)oc2ccc(-c3cc(C(=O)NCC(C)C)ccc3OCCNC(N)=O)cc12 reported_result="> 6.60"
compound=CNC(=O)c1c(-c2ccc(F)cc2)oc2ccc(-c3cc(C(=O)NC4(c5ccccn5)CC4)cc(O)c3C)cc12 reported_result="> 6.60"
compound="CNC(=O)c1c(-c2ccc(F)cc2)oc2ccc(-c3cc(C(=O)NCC(C)C)ccc3OCC3CCCN3)cc12 (stereo not shown)" reported_result="6.00 to 6.60"

Enquiry: Query pEC50 for CNC(=O)c1c(-c2ccc(F)cc2)oc2ccc(-c3cc(C(=O)NC4(c5ccn(C)n5)CC4)c(OC)cc3C)cc12
Return: > 6.60

---

Would you kindly list EC50 for each of these compounds?
tested on: HCV replicon cells; test: HCV replicon FRET / luciferase assay (96-well plates); type: cell-based; settings: Hepatitis C virus, Table 1b; HCV replicon; read-out: EC50

compound=CNC(=O)c1c(-c2ccc(F)cc2)oc2ccc(-c3cccc(-c4nc(-c5ccccc5)no4)c3)cc12 measured_endpoint=EC50 reported_result="< 250 nM"
compound=CNC(=O)c1c(-c2ccc(F)cc2)oc2ccc(-c3cc(C(=O)NCC(C)C)ccc3OCCc3ccc(Cl)cc3)cc12 measured_endpoint=EC50 reported_result="> 10000 nM"
compound=CNC(=O)c1c(-c2ccc(F)cc2)oc2ccc(-c3cc(C(=O)NCC(C)C)ccc3OCc3c[nH]cn3)cc12 measured_endpoint=EC50 reported_result="< 250 nM"
compound=CNC(=O)c1c(-c2ccc(F)cc2)oc2ccc(-c3ccc(-c4cnn(C)c4)c(C(=O)NCC(C)C)c3)cc12 measured_endpoint=EC50 reported_result="< 250 nM"
compound=CNC(=O)c1c(-c2ccc(F)cc2)oc2ccc(-c3cc(C(=O)NCC(C)C)ccc3OCc3cn(C)cn3)cc12 measured_endpoint=EC50 reported_result="250 to 1000 nM"
compound=CNC(=O)c1c(-c2ccc(F)cc2)oc2ccc(-c3cccc(C(=O)NC(C)(C)C(=O)Nc4nccnn4)c3)cc12 measured_endpoint=EC50 reported_result="< 250 nM"
compound="CCC(NC(=O)c1ccc(F)c(-c2cc3c(C(=O)NC)c(-c4ccc(F)cc4)oc3cc2NS(C)(=O)=O)c1)c1ccccc1 (centres unmarked)" measured_endpoint=EC50 reported_result="< 250 nM"

Shifting focus to the compound that follows.
Enquiry: Give EC50 for the following compound: CNC(=O)c1c(-c2ccc(F)cc2)oc2ccc(-c3cc(C(=O)NCC(C)C)ccc3OCCCN3CCOCC3)cc12
Return: < 250 nM
